# tested.target: rat brain farnesyl protein transferase (Rattus norvegicus, UniProt Q02293+Q04631)
# Construct: 40-fold purified rat brain farnesyl protein transferase; from tissue; host or cells: rat brain
# assay.details: Protein:farnesyltransferase (PFT/FPT) inhibitory activity assay
# Assay type: biochemical
# test.context: Hepes (without 5 mM phosphate); read-out: Farnesyl Protein Transferase Inhibition, Hepes, IC50
readout.label: pIC50
One number for each entry, as −log10 of the molar value.

Please review the entries below; each comes with its answer.
{"smiles": "COCn1cncc1C[C@H](NC(=O)C(Cc1cccc2ccccc12)Cc1cccc2ccccc12)C(=O)OC", "readout.label": "pIC50", "number": 6.03}
{"smiles": "CCCCc1nc(COC(=O)[C@H](Cc2c[nH]cn2)NC(=O)C(Cc2cccc3ccccc23)Cc2cccc3ccccc23)c[nH]1", "readout.label": "pIC50", "number": 5.68}
{"smiles": "COC(=O)[C@H](Cc1c[nH]cn1)NC(=O)C(Cc1cccc2ccccc12)Cc1cccc2ccccc12", "readout.label": "pIC50", "number": 6.59}

Here is the next item to consider.
Exercise: Tell me measured pIC50 for O=C(N[C@@H](Cc1c[nH]cn1)C(=O)NCCCn1ccnc1)C(Cc1cccc2ccccc12)Cc1cccc2ccccc12 please.
Key: 5.09

###

# tested.target: rat brain farnesyl protein transferase (Rattus norvegicus, UniProt Q02293+Q04631)
# Construct: 40-fold purified rat brain farnesyl protein transferase; from tissue; host or cells: rat brain
# assay.details: Protein:farnesyltransferase (PFT/FPT) inhibitory activity assay
# Format: biochemical
# test.context: Hepes/5 mM PO4^-3, pH 7.4; read-out: Farnesyl Protein Transferase Inhibition, Hepes/5 mM PO4^-3, IC50
pIC50: −log10 of the molar value.
Outcome label depends on pIC50 relative to 6: at/above gives 1, below gives -1.

{"molecule": "O=C(N[C@@H](Cc1c[nH]cn1)C(=O)NCCCn1ccnc1)C(Cc1cccc2ccccc12)Cc1cccc2ccccc12", "tested.target": "rat brain farnesyl protein transferase (Rattus norvegicus, UniProt Q02293+Q04631)", "class.label": -1}
{"molecule": "COC(=O)[C@H](Cc1c[nH]cn1)NC(=O)C(Cc1cccc2c1CCCC2)Cc1cccc2c1CCCC2", "tested.target": "rat brain farnesyl protein transferase (Rattus norvegicus, UniProt Q02293+Q04631)", "class.label": 1}
{"molecule": "C#CCOC(=O)[C@H](Cc1c[nH]cn1)NC(=O)C(Cc1cccc2ccccc12)Cc1cccc2ccccc12", "tested.target": "rat brain farnesyl protein transferase (Rattus norvegicus, UniProt Q02293+Q04631)", "class.label": 1}
{"molecule": "COC(=O)[C@H](Cc1c[nH]cn1)NC(=O)C(CC1CCCC2CCCCC21)CC1CCCC2CCCCC21 (some centres unmarked)", "tested.target": "rat brain farnesyl protein transferase (Rattus norvegicus, UniProt Q02293+Q04631)", "class.label": 1}
{"molecule": "CCN(CC)CCOC(=O)[C@H](Cc1c[nH]cn1)NC(=O)C(Cc1cccc2ccccc12)Cc1cccc2ccccc12", "tested.target": "rat brain farnesyl protein transferase (Rattus norvegicus, UniProt Q02293+Q04631)", "class.label": -1}

Shift focus to the following entry.
Exercise: Please indicate if the recorded pIC50 for O=C(N[C@@H](Cc1c[nH]cn1)C(=O)NCCN1CCOCC1)C(Cc1cccc2ccccc12)Cc1cccc2ccccc12 meets or exceeds 6.
Key: -1

###

# tested.target: rat brain farnesyl protein transferase (Rattus norvegicus, UniProt Q02293+Q04631)
# Construct: 40-fold purified rat brain farnesyl protein transferase; from tissue; host or cells: rat brain
# assay.details: Protein:farnesyltransferase (PFT/FPT) inhibitory activity assay
# Assay type: biochemical
# test.context: Hepes (without 5 mM phosphate); read-out: Farnesyl Protein Transferase Inhibition, Hepes, IC50
Assignment: determine reported IC50 for the given molecules.
Numbers only, in nM.

The cases that follow already have their IC50 on record.
{"smiles": "CCSCCNC(=O)[C@H](Cc1c[nH]cn1)NC(=O)C(Cc1cccc2ccccc12)Cc1cccc2ccccc12", "IC50 [nM]": 12000}
{"smiles": "CC(=O)NCCSC(=O)[C@H](Cc1c[nH]cn1)NC(=O)C(Cc1cccc2ccccc12)Cc1cccc2ccccc12", "IC50 [nM]": 2600}
{"smiles": "N#CCCNC(=O)[C@H](Cc1c[nH]cn1)NC(=O)C(Cc1cccc2ccccc12)Cc1cccc2ccccc12", "IC50 [nM]": 970}
{"smiles": "O=C(N[C@@H](Cc1c[nH]cn1)C(=O)OCc1ccccc1)C(Cc1cccc2ccccc12)Cc1cccc2ccccc12", "IC50 [nM]": 4200}

Below are 3 molecules. Give each one its IC50.
1. C#CCOC(=O)[C@H](Cc1c[nH]cn1)NC(=O)C(Cc1cccc2ccccc12)Cc1cccc2ccccc12
2. CCCNC(=O)[C@H](Cc1c[nH]cn1)NC(=O)C(Cc1cccc2ccccc12)Cc1cccc2ccccc12
3. COC(=O)[C@H](Cc1c[nH]cn1)N(C)C(=O)C(Cc1cccc2ccccc12)Cc1cccc2ccccc12

Key:
1: 500; 2: 4900; 3: 2000

###

# tested.target: rat brain farnesyl protein transferase (Rattus norvegicus, UniProt Q02293+Q04631)
# Construct: 40-fold purified rat brain farnesyl protein transferase; from tissue; host or cells: rat brain
# assay.details: Protein:farnesyltransferase (PFT/FPT) inhibitory activity assay
# Assay type: biochemical
# test.context: Hepes/5 mM PO4^-3, pH 7.4; read-out: Farnesyl Protein Transferase Inhibition, Hepes/5 mM PO4^-3, IC50
Counter-ions that a name gives are not always drawn.
Output fulfilled for records whose IC50 is lower than 400 nM, not fulfilled for records at or above 400 nM.

Worked set:
{"molecule": "CCOC(=O)[C@H](Cc1c[nH]cn1)NC(=O)C(Cc1cccc2ccccc12)Cc1cccc2ccccc12", "tested.target": "rat brain farnesyl protein transferase (Rattus norvegicus, UniProt Q02293+Q04631)", "class.label": "fulfilled"}
{"molecule": "CCN(CC)CCNC(=O)[C@H](Cc1c[nH]cn1)NC(=O)C(Cc1cccc2ccccc12)Cc1cccc2ccccc12", "tested.target": "rat brain farnesyl protein transferase (Rattus norvegicus, UniProt Q02293+Q04631)", "class.label": "not fulfilled"}
{"molecule": "CC(C#N)OC(=O)[C@H](Cc1c[nH]cn1)NC(=O)C(Cc1cccc2ccccc12)Cc1cccc2ccccc12 (mixture of isomers)", "tested.target": "rat brain farnesyl protein transferase (Rattus norvegicus, UniProt Q02293+Q04631)", "class.label": "not fulfilled"}
{"molecule": "COC(=O)COC(=O)[C@H](Cc1c[nH]cn1)NC(=O)C(Cc1cccc2ccccc12)Cc1cccc2ccccc12", "tested.target": "rat brain farnesyl protein transferase (Rattus norvegicus, UniProt Q02293+Q04631)", "class.label": "not fulfilled"}
{"molecule": "O=C(N[C@@H](Cc1c[nH]cn1)C(=O)OCCn1ccnc1)C(Cc1cccc2ccccc12)Cc1cccc2ccccc12", "tested.target": "rat brain farnesyl protein transferase (Rattus norvegicus, UniProt Q02293+Q04631)", "class.label": "not fulfilled"}
{"molecule": "COC(=O)[C@H](Cc1cncn1C)NC(=O)C(Cc1cccc2ccccc12)Cc1cccc2ccccc12", "tested.target": "rat brain farnesyl protein transferase (Rattus norvegicus, UniProt Q02293+Q04631)", "class.label": "fulfilled"}

Exercise: Dear colleague, could you confirm whether IC50 of O=C(N[C@@H](Cc1c[nH]cn1)C(=O)OCC1CC1)C(Cc1cccc2ccccc12)Cc1cccc2ccccc12 falls below 400 nM? Thanks.
Key: fulfilled

Exercise: API: query returns whether the molecule falls strictly under 400 nM in IC50. Query: N#CCCOC(=O)[C@H](Cc1c[nH]cn1)NC(=O)C(Cc1cccc2ccccc12)Cc1cccc2ccccc12
Key: fulfilled

Exercise: Consider COC(=O)[C@H](Cc1c[nH]cn1)NC(=O)C(Cc1ccccc1)Cc1cccc2ccccc12 (stereo partly shown) . Does its IC50 lie strictly below 400 nM?
Key: not fulfilled

Exercise: Strictly below 400 nM in IC50? C#CCCOC(=O)[C@H](Cc1c[nH]cn1)NC(=O)C(Cc1cccc2ccccc12)Cc1cccc2ccccc12 [Example 44, trifluoroacetate salt]
Key: fulfilled

Exercise: I wonder whether COC(=O)[C@H](Cc1c[nH]cn1)N(C)C(=O)C(Cc1cccc2ccccc12)Cc1cccc2ccccc12 has IC50 below 400 nM. Can you tell?
Key: not fulfilled

Exercise: Is 400 nM strictly greater than the molecule's reported IC50? molecule: CCC(C)OC(=O)[C@H](Cc1c[nH]cn1)NC(=O)C(Cc1cccc2ccccc12)Cc1cccc2ccccc12 (mixture of isomers)
Key: not fulfilled

Exercise: Please state whether IC50 is below 400 nM for CC(=O)NCCSC(=O)[C@H](Cc1c[nH]cn1)NC(=O)C(Cc1cccc2ccccc12)Cc1cccc2ccccc12
Key: not fulfilled

Exercise: # strict comparison: is reported IC50 < 400 nM? input = CNC(=O)[C@H](Cc1c[nH]cn1)NC(=O)C(Cc1cccc2ccccc12)Cc1cccc2ccccc12
Key: not fulfilled

Exercise: Lab log: compare recorded IC50 with 400 nM; is it strictly lower for O=C(N[C@@H](Cc1c[nH]cn1)C(=O)OC1CCCCC1)C(Cc1cccc2ccccc12)Cc1cccc2ccccc12 ?
Key: not fulfilled
